As shown below, each of these molecules has a reported viability, T/C value.
System: KRAS PDC multicell spheroid viability;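 further: spheroids exposed to compounds for 7 days; 100% = DMSO vehicle control viability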
assayProtocol: Anticancer human tumor 825966-067-R-J1-PDC patient-derived colon carcinoma cell line growth inhibition [KRAS2]
protocolConditions: second compound 0.1 µM; first compound 0.00316 µM; hits give low values
Number in %, nothing else.

# example entries with known answers
1) CN(C)C/C=C/C(=O)Nc1cc2c(Nc3ccc(F)c(Cl)c3)ncnc2cc1O[C@H]1CCOC1 + COc1cc2nc(C)nc(NC(C)c3cc(N)cc(C(F)(F)F)c3)c2cc1OC1CCOC1 | 82.9
2) CC(C)n1nc(-c2ccc3oc(N)nc3c2)c2c(N)ncnc21 + CNCc1ccccc1-c1csc(C(C)Nc2nc(C)nc3cc(OC)c(OC)cc23)c1 | 159
3) CN(C)C/C=C/C(=O)Nc1cc2c(Nc3ccc(F)c(Cl)c3)ncnc2cc1O[C@H]1CCOC1 + CNCc1ccccc1-c1csc(C(C)Nc2nc(C)nc3cc(OC)c(OC)cc23)c1 | 98
4) CC(=O)Nc1cccc(-n2c(=O)n(C3CC3)c(=O)c3c(Nc4ccc(I)cc4F)n(C)c(=O)c(C)c32)c1 + CC1OCC2(CCN(c3cnc(Sc4ccnc(N)c4Cl)c(N)n3)CC2)C1N | 103

viability, T/C in this record for CC(=O)Nc1cccc(-n2c(=O)n(C3CC3)c(=O)c3c(Nc4ccc(I)cc4F)n(C)c(=O)c(C)c32)c1 + C=CC(=O)N1CCN(c2nc(OCC3CCCN3C)nc3c2CCN(c2cccc4cccc(C)c24)C3)CC1CC#N : 111
